Each record here notes measured Relative activity (%).
- subject-of-test: heat resistant trehalose phosphorylase (Geobacillus stearothermophilus)
- Construct: heat resistant trehalose phosphorylase which Bacillus stearothermophilus SK-1 found by the present inventors produces; made in house; host or cells: Bacillus stearothermophilus SK-1 (FERM BP-5594), the producing strain itself
- Sequence (Q8GRC3 whole entry, change not shown): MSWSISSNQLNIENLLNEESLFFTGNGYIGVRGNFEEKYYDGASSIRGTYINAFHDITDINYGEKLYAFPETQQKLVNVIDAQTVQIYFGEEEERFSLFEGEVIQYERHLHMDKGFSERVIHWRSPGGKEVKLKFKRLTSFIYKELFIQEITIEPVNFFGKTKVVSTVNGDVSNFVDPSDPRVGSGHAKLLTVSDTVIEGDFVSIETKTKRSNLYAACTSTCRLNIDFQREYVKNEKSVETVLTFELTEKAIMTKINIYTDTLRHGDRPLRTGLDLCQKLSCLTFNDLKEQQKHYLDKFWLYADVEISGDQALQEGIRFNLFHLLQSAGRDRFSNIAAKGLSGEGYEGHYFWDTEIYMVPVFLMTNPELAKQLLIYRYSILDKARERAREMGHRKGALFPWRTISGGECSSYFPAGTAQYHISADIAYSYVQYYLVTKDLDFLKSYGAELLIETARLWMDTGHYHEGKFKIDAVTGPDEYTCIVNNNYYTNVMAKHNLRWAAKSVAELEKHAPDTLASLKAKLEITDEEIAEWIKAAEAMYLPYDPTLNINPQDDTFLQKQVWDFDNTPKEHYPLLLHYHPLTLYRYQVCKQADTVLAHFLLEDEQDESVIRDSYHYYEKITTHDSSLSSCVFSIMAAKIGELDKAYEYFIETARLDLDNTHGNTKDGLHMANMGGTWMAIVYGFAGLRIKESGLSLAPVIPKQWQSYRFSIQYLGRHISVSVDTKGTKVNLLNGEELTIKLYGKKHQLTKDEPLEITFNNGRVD
- assay-explanation: biochemical
- Type: biochemical, Bacillus stearothermophilus SK-1
- experimental-conditions: trehalose phosphorylase activity with 1 mM inhibitor; no addition = 100
Field: numeric (%). Do not append units.

As a guide, the following entries are already answered.
| compound | Relative activity (%) |
| --- | --- |
| O=S(=O)([O-])[O-].[Cu+2] [CuSO4] | 89 |
| O=S(=O)([O-])[O-].[Mn+2] [MnSO4] | 108 |
| O=C(O)c1cc[c]([Hg][Cl])cc1 [PCMB, p (Chloromercuri) benzoic acid] | 0 |
| CC(=O)[O-].CC(=O)[O-].[Pb+2] [Pb (CH3 COO)2] | 93 |

Entry [Cl][Fe][Cl] [FeCl2] , Relative activity (%) reported as 96

Entry [Cl][Hg][Cl] [HgCl2] , Relative activity (%) reported as 1

Entry [Ba+2].[OH-].[OH-] [Ba (OH)2] , Relative activity (%) reported as 106

Entry [Ca+2].[Cl-].[Cl-] [CaCl2] , Relative activity (%) reported as 102

Entry O=S(=O)([O-])[O-].[Zn+2] [ZnSO4] , Relative activity (%) reported as 20

Entry [Cl-].[Cl-].[Mg+2] [MgCl2] , Relative activity (%) reported as 103
